Catalogue of logD values
test.summary: method code SF-HPLC, from PMID: 9554875
measurement.context: pH 6.8
outcome.measure: logD

compound="Cc1cccc2c1OP(=O)(OCC1C=CC(n3cc(C)c(=O)[nH]c3=O)O1)OC2 (stereo not given)" outcome_measure=logD number=0.71
compound="Cc1cc(C)c2c(c1)COP(=O)(OCC1C=CC(n3cc(C)c(=O)[nH]c3=O)O1)O2 (stereo not given)" outcome_measure=logD number=1.18
compound="Cc1ccc2c(c1)COP(=O)(OCC1C=CC(n3cc(C)c(=O)[nH]c3=O)O1)O2 (stereo not given)" outcome_measure=logD number=0.73
compound="Cc1cn(C2C=CC(COP3(=O)OCc4ccccc4O3)O2)c(=O)[nH]c1=O (stereo not given)" outcome_measure=logD number=0.28
compound="COc1ccc2c(c1)COP(=O)(OCC1C=CC(n3cc(C)c(=O)[nH]c3=O)O1)O2 (stereo not given)" outcome_measure=logD number=0.36
